Just for reference, the FLAb antibody collection (doi:10.7554/elife.23156) is where these values come from.

B1: scFv; the commonest letter at each place (parent)
chain 1: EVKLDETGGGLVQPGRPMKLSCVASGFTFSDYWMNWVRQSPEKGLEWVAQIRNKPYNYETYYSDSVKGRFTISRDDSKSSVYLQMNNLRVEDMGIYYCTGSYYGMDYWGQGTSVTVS
chain 2: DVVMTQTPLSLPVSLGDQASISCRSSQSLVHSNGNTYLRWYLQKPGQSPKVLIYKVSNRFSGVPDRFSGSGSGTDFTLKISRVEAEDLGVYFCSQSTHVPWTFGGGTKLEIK

Variants of: B1
Measurement description: yeast surface expression (ratio to wild type); higher = more expressed
Test parameters: format: scFv 4-4-20, heavy + light
Measurement name: yeast surface expression

variant_identifier="chain 1 S30D N35R" endpoint_result=0.195
variant_identifier="chain 1 D31R Y32A" endpoint_result=0.863
variant_identifier="chain 1 D31G Y32D" endpoint_result=0.803
variant_identifier="chain 1 W108K G109H" endpoint_result=0.44
variant_identifier="chain 1 M34T V37C" endpoint_result=0.697
variant_identifier="chain 1 D106I W108S" endpoint_result=0.397
variant_identifier="chain 1 Y103E M105I" endpoint_result=0.9
variant_identifier="chain 1 D106P" endpoint_result=0.635
variant_identifier="chain 1 S101R D106N" endpoint_result=0.225
variant_identifier="chain 1 F29K M34F" endpoint_result=0.631
variant_identifier="chain 1 G104C M105P" endpoint_result=0.256
variant_identifier="chain 1 G104V" endpoint_result=0.536
variant_identifier="chain 1 W108D" endpoint_result=0.345
variant_identifier="chain 1 M105Q D106S" endpoint_result=1.17
variant_identifier="chain 1 F29D W33C M34D" endpoint_result=0.403
variant_identifier="chain 1 S101L M105F" endpoint_result=0.521
variant_identifier="chain 1 F29I S30R D31E" endpoint_result=0.688
variant_identifier="chain 1 S101H Y107R" endpoint_result=0.581
variant_identifier="chain 1 Y103S" endpoint_result=1.05
variant_identifier="chain 1 W108T" endpoint_result=0.775
variant_identifier="chain 1 W33S N35I" endpoint_result=0.495
variant_identifier="chain 1 S101V Y102E" endpoint_result=0.509
variant_identifier="chain 1 Y103C G104C" endpoint_result=0.223
variant_identifier="chain 1 M34N" endpoint_result=0.695
variant_identifier="chain 1 D31V" endpoint_result=0.515
variant_identifier="chain 1 F29H W36Q" endpoint_result=0.693
variant_identifier="chain 1 T28Q N35R" endpoint_result=0.537
variant_identifier="chain 1 T28P V37P" endpoint_result=1.08
variant_identifier="chain 1 G100Y Y107Q" endpoint_result=0.595
variant_identifier="chain 1 G104Q Y107V" endpoint_result=0.941
variant_identifier="chain 1 T28L S30A" endpoint_result=1.11
variant_identifier="chain 1 G100D Y107V" endpoint_result=0.406
variant_identifier="chain 1 Y103M Y107W" endpoint_result=0.871
variant_identifier="chain 1 M105H" endpoint_result=1.06
variant_identifier="chain 1 Y32M V37T" endpoint_result=0.538
variant_identifier="chain 1 W33F" endpoint_result=0.902
variant_identifier="chain 1 M105F D106L" endpoint_result=0.356
variant_identifier="chain 1 Y102N W108D" endpoint_result=0.259
variant_identifier="chain 1 S30Q D31H" endpoint_result=0.881
variant_identifier="chain 1 F29T Y32S W33H" endpoint_result=0.659
variant_identifier="chain 1 S30R Y32Q" endpoint_result=1.13
variant_identifier="chain 1 Y103I W108S" endpoint_result=0.397
variant_identifier="chain 1 Y102H D106Q" endpoint_result=0.937
variant_identifier="chain 1 M105P G109I" endpoint_result=0.208
variant_identifier="chain 1 G100S S101D" endpoint_result=0.892
variant_identifier="chain 1 F29L N35T" endpoint_result=0.76
variant_identifier="chain 1 Y103D W108R" endpoint_result=0.524
variant_identifier="chain 1 M34I W36S" endpoint_result=0.556
variant_identifier="chain 1 G100P D106A" endpoint_result=0.627
variant_identifier="chain 1 G100S M105Q D106N" endpoint_result=0.522
variant_identifier="chain 1 D106Y" endpoint_result=0.51
variant_identifier="chain 1 G100H D106F" endpoint_result=0.752
variant_identifier="chain 1 Y103A G104A" endpoint_result=0.911
variant_identifier="chain 1 D31V V37E" endpoint_result=0.807
variant_identifier="chain 1 G100S Y102K" endpoint_result=0.868
variant_identifier="chain 1 N35C W36F" endpoint_result=0.644
variant_identifier="chain 1 S30C M34V" endpoint_result=0.65
variant_identifier="chain 1 F29Y N35W" endpoint_result=0.0981
variant_identifier="chain 1 Y102E" endpoint_result=0.889
variant_identifier="chain 1 G100M S101E W108V" endpoint_result=0.515
variant_identifier="chain 1 D106M Y107C" endpoint_result=0.228
variant_identifier="chain 1 S30C D31F" endpoint_result=0.592
variant_identifier="chain 1 D31A N35T V37S" endpoint_result=0.281
variant_identifier="chain 1 F29T D31P" endpoint_result=1.06
variant_identifier="chain 1 G100D G109N" endpoint_result=0.118
variant_identifier="chain 1 G104R M105C" endpoint_result=0.315
variant_identifier="chain 1 M105V W108A" endpoint_result=0.434
variant_identifier="chain 1 T28Q V37F" endpoint_result=1.1
variant_identifier="chain 1 T28R W33L" endpoint_result=0.935
variant_identifier="chain 1 G100A Y103L W108G" endpoint_result=0.436
variant_identifier="chain 1 D31L W33D" endpoint_result=0.81
variant_identifier="chain 1 T28A F29Y" endpoint_result=1.06
variant_identifier="chain 1 T28V Y32N" endpoint_result=0.765
variant_identifier="chain 1 F29T W36D" endpoint_result=0.484
variant_identifier="chain 1 S101Y G104T" endpoint_result=0.261
variant_identifier="chain 1 Y103I" endpoint_result=0.964
variant_identifier="chain 1 T28D M34G" endpoint_result=0.865
variant_identifier="chain 1 S30G W36L" endpoint_result=0.597
variant_identifier="chain 1 G104W M105R" endpoint_result=0.484
variant_identifier="chain 1 T28K W33M" endpoint_result=1.03
variant_identifier="chain 1 F29G Y32Q" endpoint_result=0.991
variant_identifier="chain 1 D106W Y107I" endpoint_result=0.31
variant_identifier="chain 1 T28K N35M V37L" endpoint_result=0.642
variant_identifier="chain 1 G100Y Y103C" endpoint_result=0.567
variant_identifier="chain 1 D106N" endpoint_result=0.681
variant_identifier="chain 1 G100P G109A" endpoint_result=0.3
variant_identifier="chain 1 G100N G104Y" endpoint_result=0.185
variant_identifier="chain 1 D106W Y107N" endpoint_result=0.222
variant_identifier="chain 1 M34T N35D" endpoint_result=0.415
variant_identifier="chain 1 T28D V37G" endpoint_result=1.16
variant_identifier="chain 1 Y103M M105H D106Y" endpoint_result=0.63
